System: MDA-MB-231 spheroids
Assay: Spheroid cytotoxicity assay (luciferase), MDA-MB-231
Assay type: cell-based, human
Settings: Homo sapiens, MDA-MB-231, 168 h; 7 days of treatment, 3 independent experiments; read-out: IC50 MDA-MB-231 spheroids
pIC50: −log10 of the molar value.
Result Type: pIC50

I'm curious: which pIC50 was measured for C=C(C)C1CCC2(COC(=O)CCC(=O)NCCS(N)(=O)=O)CCC3(C)C(CCC4C5(C)CCC(OC(C)=O)C(C)(C)C5CCC43C)C12 (stereo not drawn) [Compound 5] tested on MDA-MB-231 spheroids?
4.99

I'm curious: which pIC50 was measured for NS(=O)(=O)c1nnc(NC(=O)CCC(=O)NCCOCCO)s1 [Compound 8] tested on MDA-MB-231 spheroids?
< 4.00

I'm curious: which pIC50 was measured for C=C(C)C1CCC2(C(=O)NCCOCCOC(=O)CCC(=O)Nc3nnc(S(N)(=O)=O)s3)CCC3(C)C(CCC4C5(C)CCC(OC(C)=O)C(C)(C)C5CCC43C)C12 (stereo not drawn) [Compound 12] tested on MDA-MB-231 spheroids?
< 4.00

----------
Target: recombinant human carbonic anhydrase IX (Homo sapiens, UniProt Q16790)
Assay: hCA IX esterase assay with p-nitrophenyl acetate
I'd be grateful if you could share measured Ki for these entries.
Report the figure in nM without appending any unit label.

Query (molecule): C=C(C)C1CCC2(COC(=O)CCC(=O)Nc3nnc(S(N)(=O)=O)s3)CCC3(C)C(CCC4C5(C)CCC(OC(C)=O)C(C)(C)C5CCC43C)C12 (stereo not shown) ; field requested: Ki
1250

Query (molecule): C=C(C)C1CCC2(C(=O)NCCS(N)(=O)=O)CCC3(C)C(CCC4C5(C)CCC(OC(C)=O)C(C)(C)C5CCC43C)C12 (stereo not shown) ; field requested: Ki
1040

Query (molecule): C=C(C)C1CCC2(COC(=O)CCC(=O)NCCS(N)(=O)=O)CCC3(C)C(CCC4C5(C)CCC(OC(C)=O)C(C)(C)C5CCC43C)C12 (stereo not shown) ; field requested: Ki
1100

Query (molecule): NS(=O)(=O)c1nnc(NC(=O)CCC(=O)NCCOCCO)s1 ; field requested: Ki
146

----------
Test system: A2780 ovarian cancer cells
Test: SRB cytotoxicity assay, A2780
Format: cell-based
Details: Homo sapiens, A2780, 96 h, read-out: IC50 A2780
Description: All of the compounds were dissolved in dimethyl sulfoxide (DMSO) to achieve a 20 mM stock solution. Cells were seeded in cell culture flasks 24 h before treatment. The treatment was performed for 24 h. The cytotoxicity of the drugs was determined in 2D tumor models using sulforhodamine B (SRB) assays. Treatment started 24 h after seeding the tumor cells in 96-well plates as previously described.
Result Type: IC50 (µM)
Report the figure in µM without appending any unit label.

Query (molecule): C=C(C)C1CCC2(COC(=O)CCC(=O)Nc3nnc(S(N)(=O)=O)s3)CCC3(C)C(CCC4C5(C)CCC(OC(C)=O)C(C)(C)C5CCC43C)C12 (centres unmarked) ; field requested: IC50
8.7

----------
Test system: MDA-MB-231 spheroids
Assay: Spheroid cytotoxicity assay (luciferase), MDA-MB-231
Format: cell-based, human
Conditions: 7 days of treatment, 3 independent experiments; read-out: IC50 MDA-MB-231 spheroids
Result Type: pIC50
Please keep in mind that pIC50 is minus log10 of the molar concentration; only the number is needed.

Query (compound): NS(=O)(=O)c1ccc(NC(=O)Nc2ccc(F)cc2)cc1 [Compound U-104, reference compound] ; field requested: pIC50
4.47
